- Tested on: SK-BR-3
- procedure_text: Antiproliferative activity against human SKBR3 cells after 72 hrs by MTS/PMS assay
- Assay type: functional, cell-based
- experimental_parameters: SK-BR-3, 72 h
measurement_label: EC50 (nM)
Give the quantity in nM, number only.

Worked examples follow.
{"compound": "COCCN1CCC(Oc2ccc([C@H]3CC[C@H](NC(=O)c4ccc(OC)c(-c5cccc(OC)c5)c4)CC3)cc2)CC1", "test_target": "SK-BR-3", "EC50, nM": 363}
{"compound": "COc1cccc(-c2cc(C(=O)N[C@H]3CC[C@H](c4ccc(OC5CCCN(CCO)C5)cc4)CC3)ccc2OC)c1 (stereo partly drawn)", "test_target": "SK-BR-3", "EC50, nM": 450}

Item COCCN1CCCC(Oc2ccc3cc(NC(=O)c4ccc(OC)c(-c5cccc(OC)c5)c4)c(=O)oc3c2C)C1 (stereo not drawn) has what recorded EC50? 7000

Would you kindly share the measured EC50 for "COCCN1CCC(Oc2ccc3cc(NC(=O)c4ccc(OC)c(-c5cccc(OC)c5)c4)c(=O)oc3c2C)CC1" ? 4000

Can you look up the measured EC50 of "COc1cccc(-c2cc(C(=O)N[C@H]3CC[C@H](c4ccc(OC5CCN(CCO)CC5)cc4)CC3)ccc2OC)c1" for me? 285

GET /values?readout=EC50&item= COc1cccc(-c2cc(C(=O)Nc3cc4ccc(OC5CCCN(CCO)C5)c(C)c4oc3=O)ccc2OC)c1 (stereo not drawn) 1700

Param item = "COc1cccc(-c2cc(C(=O)Nc3cc4ccc(OC5CCN(CCO)CC5)c(C)c4oc3=O)ccc2OC)c1" ; retrieve measured EC50. 2100

Can you share its EC50? I mean this compound: COCCN1CCCC(Oc2ccc([C@H]3CC[C@H](NC(=O)c4ccc(OC)c(-c5cccc(OC)c5)c4)CC3)cc2)C1 (stereo partly drawn) 900

* * *

- Tested on: SK-BR-3
- procedure_text: Antiproliferative activity against human SKBR3 cells
- Assay type: functional, cell-based
measurement_label: EC50
Give me the value, and tack the unit on after it.

{"compound_structure": "COc1cccc(-c2cc(C(=O)Nc3cc4ccc(O[C@@H]5OC(C)(C)[C@H](OC)[C@@H](O)[C@H]5O)c(C)c4oc3=O)ccc2OC)c1", "EC50": "7 µM"}

So what does the record say about EC50 for "CO[C@@H]1[C@@H](OC(N)=O)[C@@H](O)[C@H](Oc2ccc3c(O)c(NC(=O)c4ccc(O)c(CC=C(C)C)c4)c(=O)oc3c2C)OC1(C)C" ? 700 µM
